system: Vero E6 cells; conditions: 72 h
No end group written: not given here.
property.label: CC50, cellular viability

Worked set:
| substance | target.under.test | measurement |
| --- | --- | --- |
| SAYWQWFSKFLGRIL-NH2 [TLP-2] | Vero E6 cells | 2.56 µM |
| FLQWFSKFLGRIL-NH2 [TLP-1] | Vero E6 cells | 4.65 µM |
| SAFWQWFSKFLGR-NH2 [TLP-3] | Vero E6 cells | 14.91 µM |

We now examine a further substance.
Query: Recorded CC50, cellular viability for FVQWFSKFLGRIL-NH2 [Temporin L, reference compound] , please?
Reply: 6.78 µM
